Assay: Volume of distribution at steady state in CD1 mouse at 1 mg/kg, iv pretreated with ABT followed by compound treatment and measured upto 7 hrs by LC-MS/MS analysis
Assay type: ADME, organism-based
Settings: in vivo, read-out: Vdss
QUANTITY KIND: Vd (L/kg)
// return numeric value only (unit: L/kg, not printed)

Vd reading for `CCc1c(F)cc(F)cc1OCC(=O)N(Cc1ccc(C#N)cc1)Cc1nnc(N)o1` : 3.97

----------
Items are presented alongside their recorded logD at 2 h, 25 µM.
Experiment: physchem
Conditions: 1-octanol/phosphate buffer, pH 7.4
Respond with the number and no other words.

N#Cc1ccc(CN(Cc2nnc(N)o2)C(=O)CSc2cc(F)cc(F)c2Cl)c(F)c1 2.6
Nc1nnc(CN(Cc2ccc(S(N)(=O)=O)cc2F)C(=O)CSc2cc(F)cc(F)c2Cl)o1 1.8

logD at 2 h, 25 µM reading for `N#Cc1ccc(CN(Cc2nnc(N)o2)C(=O)COc2cc(F)cc(F)c2Cl)cn1` : 1.4

logD at 2 h, 25 µM reading for `CCc1c(F)cc(F)cc1O[C@H](C)C(=O)N(Cc1nnc(N)o1)Cc1ccc(C#N)cc1F` : 3

----------
Assay: AUCinfinity in CD1 mouse at 3 mg/kg, po pretreated with ABT followed by compound treatment and measured upto 7 hrs by LC-MS/MS analysis
Type: ADME, organism-based
Set-up: route oral, dose 3 mg/kg, time <=7
Details: in vivo
QUANTITY KIND: AUC(0-inf) (ng·h/mL)
// return numeric value only (unit: ng·h/mL, not printed)

AUC(0-inf) reading for `CCc1c(F)cc(F)cc1OCC(=O)N(Cc1ccc(C#N)cc1)Cc1nnc(N)o1` : 323

----------
Assay: Volume of distribution at steady state in CD1 mouse at 3 mg/kg, iv pretreated with ABT followed by compound treatment and measured upto 7 hrs by LC-MS/MS analysis
Assay type: ADME, organism-based
Conditions: in vivo, read-out: Vdss
QUANTITY KIND: Vd (L/kg)
// return numeric value only (unit: L/kg, not printed)

Vd reading for `[2H]C([2H])(Oc1cc(F)cc(F)c1C([2H])([2H])C([2H])([2H])[2H])C(=O)N(Cc1nnc(N)o1)Cc1ccc(S(N)(=O)=O)cc1F` : 0.31

----------
Experiment: AUCinfinity in CD1 mouse at 5 mg/kg, iv pretreated with ABT followed by compound treatment and measured upto 7 hrs by LC-MS/MS analysis
Format: ADME, organism-based
Parameters: route intravenous, dose 5 mg/kg, time <=7
Details: in vivo
QUANTITY KIND: AUC(0-inf) (ng·h/mL)
// return numeric value only (unit: ng·h/mL, not printed)

AUC(0-inf) reading for `CCc1c(F)cc(F)cc1OCC(=O)N(Cc1ccc(C#N)cc1)Cc1nnc(N)o1` : 1040

----------
Test: AUCinfinity in CD1 mouse at 85 mg/kg, iv measured upto 7 hrs by LC-MS/MS analysis
Type: ADME, organism-based
Design: route intravenous, dose 85 mg/kg, time <=7
Conditions: in vivo
QUANTITY KIND: AUC(0-inf)

AUC(0-inf) reading for `[2H]C([2H])(Oc1cc(F)cc(F)c1C([2H])([2H])C([2H])([2H])[2H])C(=O)N(Cc1nnc(N)o1)Cc1ccc(S(N)(=O)=O)cc1F` : 24000 ng·h/mL

----------
Test: Oral bioavailability in CD1 mouse at 30 mg/kg pretreated with ABT followed by compound treatment and measured upto 7 hrs by LC-MS/MS analysis
Type: ADME, organism-based
Details: in vivo
QUANTITY KIND: bioavailability (%)
// return numeric value only (unit: %, not printed)

bioavailability reading for `CCc1c(F)cc(F)cc1OCC(=O)N(Cc1ccc(C#N)cc1)Cc1nnc(N)o1` : 138
